biological target: T1, mouse programmed cell death protein 1 Fc fusion protein (mPD-1-Fc), mPD-1 C60S (aa 25-167) (Mus musculus, UniProt Q02242, stabilised); test: SPR; Carterra LSA; Fab from the ammonium sulfate precipitate of the culture supernatant immobilised on a NiHC200M chip; hPD-1 (1-1024 nM) or mPD-1-Fc (4-1024 nM) as analyte, fourfold dilution series, no regeneration; HBS-EP pH 7.4, 25 °C; medians over the spots of a construct, KD = koff/kon; conditions: one partner purified
T1 construct: not cleaved; source: Expi293F, purified (Protein A, SEC; dimeric fraction); not shown: Fc (human), C-terminal, kept
OUTCOME MEASURE: koff (s⁻¹)
Entry rule: numbers only, all in s⁻¹.

| BINDER | UNIT DESCRIPTOR | koff |
| --- | --- | --- |
| toripalimab Fab L.P100G (Fab, V domains shown, as the heavy chain of Sm3; light chain of Sm3 with this change; numbers count from the chain's first residue; source: Brevibacillus, culture supernatant (ammonium sulfate precipitate); not shown: 6xHis, C-terminal, kept; 6xHN, C-terminal, kept) VH: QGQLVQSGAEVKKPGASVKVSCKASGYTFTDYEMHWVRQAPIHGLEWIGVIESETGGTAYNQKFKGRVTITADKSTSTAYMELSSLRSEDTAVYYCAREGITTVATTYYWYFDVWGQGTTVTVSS VL: DVVMTQSPLSLPVTLGQPASISCRSSQSIVHSNGNTYLEWYLQKPGQSPQLLIYKVSNRFSGVPDRFSGSGSGTDFTLKISRVEAEDVGVYYCFQGSHVGLTFGQGTKLEIK | s⁻¹ | 0.000384 |

Next item in the queue.
What does the data say about its koff? Entry: toripalimab Fab H.D31A (Fab, V domains shown, heavy chain of Sm3 with this change; numbers count from the chain's first residue; as the light chain of Sm3; source: Brevibacillus, culture supernatant (ammonium sulfate precipitate); not shown: 6xHis, C-terminal, kept; 6xHN, C-terminal, kept) VH: QGQLVQSGAEVKKPGASVKVSCKASGYTFTAYEMHWVRQAPIHGLEWIGVIESETGGTAYNQKFKGRVTITADKSTSTAYMELSSLRSEDTAVYYCAREGITTVATTYYWYFDVWGQGTTVTVSS VL: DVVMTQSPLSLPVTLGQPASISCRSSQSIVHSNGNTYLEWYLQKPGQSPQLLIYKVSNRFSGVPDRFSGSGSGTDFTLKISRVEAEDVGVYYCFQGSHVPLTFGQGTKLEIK
0.00913
